# TARGET_UNDER_TEST: phosphorylation levels of ERK1/2 in AsPC-1 (homozygous KRAS-G12D) cells (Homo sapiens, UniProt P01116, G12D)
# Sequence (P01116 1-186 G12D): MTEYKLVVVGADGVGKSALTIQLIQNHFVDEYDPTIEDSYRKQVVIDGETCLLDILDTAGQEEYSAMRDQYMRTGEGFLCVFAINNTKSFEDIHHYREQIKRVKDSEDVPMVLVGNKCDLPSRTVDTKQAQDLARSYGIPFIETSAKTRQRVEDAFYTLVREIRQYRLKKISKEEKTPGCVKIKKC
# EXPERIMENTAL_DETAILS: Cellular phospho-ERK assay in AsPC-1 cells (Alpha Screen), assay medium without fetal bovine serum;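 also: signal taken as phospho-ERK over total ERK per well, both detected in one multiplex bead assay, EC50 from four-parameter logistic fit of dose-response curves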
# EXPERIMENTAL_CONTEXT: phospho-ERK AlphaScreen, 18 h
*1 amine or outer side, *2 acyl side, *3 side chain or, on linkers, in order; H or OH if unused. Where a SMILES comes first, the peptide text is derived from it. [ ]: non-standard residue; d: D form. Ala(pyrimidin-5-yl) = N[C@@H](Cc1cncnc1)C(=O)O; Phe(2-F) = N[C@@H](Cc1ccccc1F)C(=O)O; NMe3Pal = CN[C@@H](Cc1cccnc1)C(=O)O; X1 = O=C(C12CC(CN[*:1])(C1)C2)[*:2]; X17 = O=C([C@H](CCCCF)N[*:1])[*:2]; NMeF = CN[C@@H](Cc1ccccc1)C(=O)O; PhLac = O=C(O)[C@@H](O)Cc1ccccc1; 3Pal = N[C@@H](Cc1cccnc1)C(=O)O; Ahp(2) = CCCCC[C@H](N)C(=O)O; Cba = N[C@@H](CC1CCC1)C(=O)O; NMeA = CN[C@@H](C)C(=O)O; Nle = CCCC[C@H](N)C(=O)O
PROPERTY_NAME: pEC50
Please note pEC50 is a logarithmic value: minus log10 of concentration in mol/L. Answer with that number alone.

CCCC[C@@H]1NC(=O)[C@H](Cc2cccnc2)NC(=O)[C@H](C)N(C)C(=O)[C@H](Cc2ccc(O)cc2)NC(=O)C23CC(CNC(=O)[C@H](Cc4cccnc4)N(C)C(=O)[C@H](CCCC)NC(=O)[C@H](Cc4ccccc4F)NC1=O)(C2)C3 [compound 168] (cyclo(Y[NMeA][3Pal][Nle][Phe(2-F)][Nle][NMe3Pal][X1]))
4.33
CCCC[C@@H]1NC(=O)[C@H](Cc2ccccc2F)NC(=O)[C@H](CCCCF)NC(=O)[C@H](Cc2cncnc2)NC(=O)[C@H](C)N(C)C(=O)[C@H](Cc2ccccc2)OC(=O)C23CC(CNC(=O)[C@H](Cc4ccccc4)N(C)C1=O)(C2)C3 [compound 130] (cyclo([NMeA][Ala(pyrimidin-5-yl)][X17][Phe(2-F)][Nle][NMeF][X1][PhLac]))
5.69
CCCCC[C@@H]1NC(=O)[C@H](Cc2ccc(OC)cc2)NC(=O)[C@H](CC2CCC2)NC(=O)[C@H](Cc2cccnc2)NC(=O)[C@H](C)N(C)C(=O)[C@H](Cc2ccccc2)OC(=O)C23CC(CNC(=O)[C@H](Cc4ccccc4)N(C)C1=O)(C2)C3 [compound 227] (cyclo([3Pal][Cba]Y(Me)[Ahp(2)][NMeF][X1][PhLac][NMeA]))
6.05

Shift focus to the following entry.
Exam item: Give its pEC50 value. Item: CCCC[C@@H]1NC(=O)[C@H](Cc2cncnc2)NC(=O)[C@H](CCCn2ccnc2)N(C)C(=O)[C@H](Cc2ccccc2)OC(=O)C23CC(CNC(=O)[C@H](Cc4ccccc4)N(C)C(=O)[C@H](CCCC)NC(=O)[C@H](Cc4ccccc4F)NC1=O)(C2)C3 (single isomer, unassigned) [compound 223]
Marked response: 4.96

Source: patent US20260001914A1
